- Tested on: ragweed (common ragweed, Ambrosia elatior)
- Test: Test A postemergence, visual injury rating 0-100
- Format: in vivo
- Applied conditions: 125 g ai/ha, 0 to 100 scale
Measurement label: Ragweed plant response rating
In your answer, state the number alone without any accompanying words.

> print(dat)
                                   compound              measurement.label  measured.value
1  CC1=[N+]([O-])C(C(=O)Nc2cccc(F)c2F)C(c2cccc(C)n2)C1 (racemic)  Ragweed plant response rating              20
2  CC1=[N+]([O-])C(C(=O)Nc2cccc(F)c2F)C(c2ccccc2F)C1 (racemic)  Ragweed plant response rating               0
3  CC1=[N+]([O-])C(C(=O)Nc2cccc(F)c2F)C(c2ccc(C)c(Cl)c2)C1 (racemic)  Ragweed plant response rating               0
4  CC1=[N+]([O-])[C@H](C(=O)Nc2cccc(F)c2F)[C@@H](c2ccc(Cl)cc2)C1  Ragweed plant response rating               0
5  CC1=[N+]([O-])C(C(=O)Nc2cccc(F)c2F)C(c2ccccc2C)C1 (racemic)  Ragweed plant response rating               0

Report Ragweed plant response rating for CC1=[N+]([O-])C(C(=O)Nc2ccccc2S(C)(=O)=O)C(c2ccc(C(F)(F)F)cc2)C1 (racemic) 0

Determine from records and report Ragweed plant response rating for CC1=[N+]([O-])C(C(=O)Nc2cccc(F)c2F)C(c2cc(C)cc(C(F)(F)F)c2)C1 (centres unmarked) 0

Using the record for CC1=[N+]([O-])[C@H](C(=O)Nc2cccc(F)c2F)[C@@H](c2ccc(C(F)(F)F)cc2)C1 , state its measured Ragweed plant response rating. 40

Note Ragweed plant response rating for the compound shown: CC1=[N+]([O-])C(C(=O)Nc2cccc(F)c2F)C(c2ccc(C(F)(F)F)c(C)c2)C1 (racemic) 10

Quickly give me recorded Ragweed plant response rating for CC1=[N+]([O-])C(C(=O)Nc2cccc(F)c2F)C(c2ccccc2)C1 (racemic) [Compound 16] 0

Specify reported Ragweed plant response rating for the compound shown: CC1=[N+]([O-])[C@@H](C(=O)Nc2cccc(F)c2F)[C@H](c2ccc(Cl)cc2)C1 (relative stereo) 30

Look up and report measured Ragweed plant response rating for this entry: CC1=[N+]([O-])C(C(=O)Nc2cccc(C#N)c2F)C(c2ccc(C(F)(F)F)cc2)C1 (racemic) 0

Report Ragweed plant response rating, nothing else, for this compound: CC1=[N+]([O-])[C@H](C(=O)Nc2cccc(F)c2F)[C@@H](c2ccc3c(c2)OC(F)(F)O3)C1 (relative stereo) 40

// Input: CC(C)C1=[N+]([O-])C(C(=O)Nc2cccc(F)c2F)C(c2ccc(C(F)(F)F)cc2)C1 (racemic) . Output its Ragweed plant response rating only. 0

Look up Ragweed plant response rating of CC1=[N+]([O-])C(C(=O)Nc2cccc(F)c2F)C(c2cc(C)cc(CF)c2)C1 (racemic) and report it. 30

* * *

- Test system: kochia (Kochia scoparia)
- Test: Test A preemergence, visual injury rating 0-100
- Format: in vivo
- Applied conditions: 500 g ai/ha
Quick rule: Kochia plant response rating (0 to 100 scale) of at least 80 means Satisfied, below that means Not satisfied.

Worked examples follow.
> print(dat)
                                   compound          group
1  CC1=[N+]([O-])C(C(=O)Nc2ccncc2C(F)(F)F)C(c2ccc(C(F)(F)F)cc2)C1 (racemic) [Compound 36]      Satisfied
2  CC1=[N+]([O-])C(C(=O)Nc2cccc(F)c2F)C(c2cccc(F)c2C)C1 (racemic) [Compound 78]  Not satisfied
3  CC1=[N+]([O-])C(C(=O)Nc2cccc(F)c2F)C(c2ccc(F)cc2Oc2ncc(F)cn2)C1 (racemic) [Compound 68]  Not satisfied
4  CC1=[N+]([O-])C(C(=O)Nc2cccc(F)c2F)C(c2ccc(Br)cn2)C1 (racemic) [Compound 66]  Not satisfied

Determine whether this compound has Kochia plant response rating (0 to 100 scale) no lower than 80: CC1=[N+]([O-])C(C(=O)Nc2cccc(F)c2F)C(c2ccc(C)c(C(F)(F)F)c2)C1 (racemic) [Compound 62] Not satisfied

* * *

- System: wheat (Triticum aestivum)
- Test: Test A postemergence, visual injury rating 0-100
- Format: in vivo
- Applied conditions: 125 g ai/ha, 0 to 100 scale
Listed below: Wheat plant response rating values for each entry.
Just the number, please.

Worked examples follow.
> print(dat)
                                   molecule            measurement.label  measured.value
1  CC1=[N+]([O-])C(C(=O)Nc2cccc(F)c2F)C(c2cc(C)cc(F)c2)C1 (racemic)  Wheat plant response rating              20
2  CC1=[N+]([O-])C(C(=O)Nc2cccc(F)c2F)C(c2cccc(F)c2)C1 (racemic)  Wheat plant response rating               0
3  CC1=[N+]([O-])C(C)(C(=O)Nc2cccc(F)c2F)C(c2ccc(C(F)(F)F)cc2)C1 (racemic)  Wheat plant response rating              30

Dear colleague, please send me the reported Wheat plant response rating for CC1=[N+]([O-])C(C(=O)Nc2cccc(F)c2F)C(c2ccc3c(c2)OCO3)C1 (racemic) when you can. 0

Using known records, supply Wheat plant response rating for CC1=[N+]([O-])C(C(=O)Nc2cccc(F)c2F)C(c2ccc(F)c(Oc3ncc(F)cn3)c2)C1 (racemic) 10

Identify the reported Wheat plant response rating for the following entry. CC1=[N+]([O-])C(C(=O)Nc2cccc(F)c2F)C(c2ccc(C(F)(F)F)c(C)c2)C1 (racemic) 70

Fill in Wheat plant response rating for record CC1=[N+]([O-])C(C(=O)Nc2cccc(F)c2F)C(c2ccc(F)c(C(F)(F)F)c2)C1 (racemic) 70

* * *

- System: barnyardgrass (Echinochloa crus-galli)
- Test: Test A postemergence, visual injury rating 0-100
- Type: in vivo
- Applied conditions: 500 g ai/ha, 0 to 100 scale
- Description: […]
Below is a list of entries, each paired with its recorded Barnyardgrass plant response rating value.
Please state the value as a number alone, without comment.

> print(dat)
                                   molecule                            study.system                    measurement.label  measured.value
1  CC1=[N+]([O-])C(C(=O)Nc2cccc(F)c2F)C(c2ccc(Cl)c(F)c2)C1 (racemic)  barnyardgrass (Echinochloa crus-galli)  Barnyardgrass plant response rating              90

Look up and report measured Barnyardgrass plant response rating for this entry: CC1=[N+]([O-])C(C(=O)Nc2cccc(F)c2F)C(c2cccc(F)c2C)C1 (racemic) 80

Please indicate Barnyardgrass plant response rating recorded for CC1=[N+]([O-])C(C(=O)Nc2cccc(F)c2F)C(c2cccc(C#N)c2)C1 (racemic) 80

* * *

- Test system: foxtail, giant (giant foxtail, Setaria faberii)
- Test: Test A preemergence, visual injury rating 0-100
- Assay type: in vivo
- Applied conditions: 500 g ai/ha
Measurement label: Foxtail, Giant plant response rating (0 to 100 scale)
Just the number, please, no unit attached.

> print(dat)
                                   compound  measured.value
1  COc1cc(C2CC(C)=[N+]([O-])C2C(=O)Nc2cccc(F)c2F)cc(C)n1 (racemic)             100

Check foxtail, giant (giant foxtail, Setaria faberii) data and give Foxtail, Giant plant response rating (0 to 100 scale) for CC1=[N+]([O-])C(C(=O)Nc2cccc(F)c2F)C(c2cccc(Oc3ccc(F)cc3)c2)C1 (racemic) . 90

Give Foxtail, Giant plant response rating (0 to 100 scale) only, for CC1=[N+]([O-])C(C(=O)Nc2cccc(F)c2F)C(c2cccc(C(F)(F)F)c2C)C1 (racemic) , using foxtail, giant (giant foxtail, Setaria faberii) data. 100

Consider the compound CC1=[N+]([O-])[C@H](C(=O)Nc2cccc(F)c2F)[C@@H](c2ccc(C(F)F)cc2)C1 (relative stereo) tested on foxtail, giant (giant foxtail, Setaria faberii); state its Foxtail, Giant plant response rating (0 to 100 scale). 90

With foxtail, giant (giant foxtail, Setaria faberii) as the test system, provide measured Foxtail, Giant plant response rating (0 to 100 scale) for this compound: CC1=[N+]([O-])C(C(=O)Nc2cccc(F)c2F)C(c2cc(F)c(F)c(F)c2)C1 (stereo not drawn) 100

Send back foxtail, giant (giant foxtail, Setaria faberii) Foxtail, Giant plant response rating (0 to 100 scale) of CC1=[N+]([O-])C(C(=O)Nc2cccc(F)c2F)C(c2ccc(C(F)(F)F)cc2F)C1 (stereo not drawn) only. 90

Quote foxtail, giant (giant foxtail, Setaria faberii) Foxtail, Giant plant response rating (0 to 100 scale) for entry COc1cccc(C2CC(C)=[N+]([O-])C2C(=O)Nc2cccc(F)c2F)n1 (racemic) . 60
